Recorded values, source the supplement of paper PMC11246515.

# Assay text: total protein half-life in vivo (active degradation + dilution); higher = more stable protein
# Reported conditions: wild type E. coli NCM3722; growth: C-lim chemostat; doubling time 3 h
Listed below: total protein half-life in vivo values for each entry.

Biosequence	total protein half-life in vivo
MKDVVDKCSTKGCAIDIGTVIDNDNCTSKFSRFFATREEAESFMTKLKELAAATSSADEGASVAYKIKDLEGQVELDAAFTFSCQAEMIIFELSLRSLA	2.11 h
MTVETQLNPTQPVNQQIYRILRRDIVHCLIAPGTPLSEKEVSVRFNVSRQPVREAFIKLAENGLIQIRPQRGSYVNKISMAQVRNGSFIRQAIECAVARRAASMITESQCYQLEQNLHQQRIAIERKQLDDFFELDDNFHQLLTQIADCQLAWDTIENLKATVDRVRYMSFDHVSPPEMLLRQHLDIFSALQKRDGDAVERAMTQHLQEISESVRQIRQENSDWFSEE [P0ACM2]	3.42 h
MTPTIELICGHRSIRHFTDEPISEAQREAIINSARATSSSSFLQCSSIIRITDKALREELVTLTGGQKHVAQAAEFWVFCADFNRHLQICPDAQLGLAEQLLLGVVDTAMMAQNALIAAESLGLGGVYIGGLRNNIEAVTKLLKLPQHVLPLFGLCLGWPADNPDLKPRLPASILVHENSYQPLDKGALAQYDEQLAEYYLTRGSNNRRDTWSDHIRRTIIKESRPFILDYLHKQGWATR	2.93 h
MDNRGEFLNNVAQALGRPLRLEPQAEDAPLNNYANERLTQLNQQQRCDAFIQFASDVMLTRCELTSEAKAAEAAIRLCKELGDQSVVISGDTRLEELGISERLQQECNAVVWDPAKGAENISQAEQAKVGVVYAEYGLTESGGVVLFSAAERGRSLSLLPEYSLFILRKSTILPRVAQLAEKLHQKAQAGERMPSCINIISGPSSTADIELIKVVGVHGPVKAVYLIIEDC	2.33 h
MNKVVLLCRPGFEKECAAEITDKAGQREIFGFARVKENAGYVIYECYQPDDGDKLIRELPFSSLIFARQWFVVGELLQHLPPEDRITPIVGMLQGVVEKGGELRVEVADTNESKELLKFCRKFTVPLRAALRDAGVLANYETPKRPVVHVFFIAPGCCYTGYSYSNNNSPFYMGIPRLKFPADAPSRSTLKLEEAFHVFIPADEWDERLANGMWAVDLGACPGGWTYQLVKRNMWVYSVDNGPMAQSLMDTGQVTWLREDGFKFRPTRSNISWMVCDMVEKPAKVAALMAQWLVNGWCRETIFNLKLPMKKRYEEVSHNLAYIQAQLDEHGINAQIQARQLYHDREEVTVHVRRIWAAVGGRRDER [P0ADR6]	3.45 h
MSQFFYIHPDNPQQRLINQAVEIVRKGGVIVYPTDSGYALGCKIEDKNAMERICRIRQLPDGHNFTLMCRDLSELSTYSFVDNVAFRLMKNNTPGNYTFILKGTKEVPRRLLQEKRKTIGMRVPSNPIAQALLEALGEPMLSTSLMLPGSEFTESDPEEIKDRLEKQVDLIIHGGYLGQKPTTVIDLTDDTPVVVREGVGDVKPFL [P0AFR4]	3.1 h
